target: MAL^TIR (Homo sapiens, UniProt P58753)
Construct: MAL (residues 79–221); 6xHis; made in house; host or cells: E. coli BL21 (DE3)
Sequence (P58753 79-221): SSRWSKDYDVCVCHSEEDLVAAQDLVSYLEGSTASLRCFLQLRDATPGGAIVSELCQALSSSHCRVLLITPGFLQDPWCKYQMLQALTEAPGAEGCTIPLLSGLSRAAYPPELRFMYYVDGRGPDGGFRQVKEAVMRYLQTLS
procedure-summary: T‐Surf phage library (P8 and P3) selection against MAL^TIR, four rounds, NGS read counts
Assay type: binding
condition-summary: P3 library, selection against MAL TIR; rank by count before grouping
readout-kind: P3_MAL Rank (before)

| biosequence | value-measured |
| --- | --- |
| KMQKWKDALYEAAKLG | 3687 |
| PNLRTKVLNYLFRTNT | 2711 |
| KSILDTEARIWGWLFA | 3718 |
| SLFCNKLRYHLPAPQH | 3027 |
| PNLRTKLLNYLIRTKT | 2694 |
| PEKDNGGANAFSNNIV | 2645 |
| LKVERWRQALEKADKL | 2299 |
| RGFLSHLRHHLQEQDH | 2378 |

I: PNLRTTVQNYLMRTKT
II: NQWRNALYEAANLS
Qu. From the items above, decide which of I and II has the lower P3_MAL Rank (before) reading. Select an item and report its label.
Ans. II
